targetOfAssay: T1, human ROR1-His protein (fused with a His protein tag, Acrobiosystems, RO1-H522y) (human, UniProt Q01973 30-403)
T1 construct: also called recombinant human ROR1-His protein; not shown: His tag
T1 sequence (Q01973 30-403 limits assumed): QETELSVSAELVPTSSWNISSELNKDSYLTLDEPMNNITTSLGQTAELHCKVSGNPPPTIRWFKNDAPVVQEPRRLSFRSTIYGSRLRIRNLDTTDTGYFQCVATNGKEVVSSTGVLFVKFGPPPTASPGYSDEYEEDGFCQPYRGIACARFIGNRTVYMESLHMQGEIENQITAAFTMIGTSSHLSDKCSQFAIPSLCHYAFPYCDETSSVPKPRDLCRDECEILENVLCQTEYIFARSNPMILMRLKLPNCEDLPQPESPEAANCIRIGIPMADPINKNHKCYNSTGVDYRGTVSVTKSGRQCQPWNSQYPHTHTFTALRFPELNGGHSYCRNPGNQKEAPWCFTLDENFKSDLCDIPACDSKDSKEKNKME
methodSummary: SPR Biacore T200, method as Example 6 (antibody Fc-captured, antigen as analyte)
observationType: Kd (nM)
The reply should contain only the number, in nM.

binder="humanized single domain antibody AHP15485-VHH4 (Fc fusion, Humanized VHH expressed from pcDNA3.4-Fc (Human IgG1); not shown: human IgG1 Fc of the pcDNA3.4-Fc (Human IgG1) expression vector) EVQLVESGGGLVQPGGSLRLSCAASGRSFSNFQMGWFRQAPGKEREFVAASGWSGGPTYYADSVKGRFTISTDNSKNTLYLQMNSLRAEDTAVYYCYEDRVLSGRPVRYWGQGTLVTVSS" scaleunit=nM resultnumber=290

Recorded result, single domain antibody AHP15485-VHH4-Variant1 (Fc fusion, Fc format is inferred; not shown: human IgG1 Fc; vector and li) EVQLVESGGGLVQPGGSLRLSCAASGRSFSNFQMGWFRQAPGKEREFVAASGWSGGPTYYWDSVIGRFTISTDNSKNTLYLQMNSLRAEDTAVYYCYEDRVLSGRPVRYWGQGTLVTVSS , Kd: 184
